ASSAYED_TARGET: serotonine transporter (SERT) receptor (Homo sapiens, UniProt P31645)
Construct: expressed in transfected cells; host or cells: CHO cells
Sequence (P31645 whole entry): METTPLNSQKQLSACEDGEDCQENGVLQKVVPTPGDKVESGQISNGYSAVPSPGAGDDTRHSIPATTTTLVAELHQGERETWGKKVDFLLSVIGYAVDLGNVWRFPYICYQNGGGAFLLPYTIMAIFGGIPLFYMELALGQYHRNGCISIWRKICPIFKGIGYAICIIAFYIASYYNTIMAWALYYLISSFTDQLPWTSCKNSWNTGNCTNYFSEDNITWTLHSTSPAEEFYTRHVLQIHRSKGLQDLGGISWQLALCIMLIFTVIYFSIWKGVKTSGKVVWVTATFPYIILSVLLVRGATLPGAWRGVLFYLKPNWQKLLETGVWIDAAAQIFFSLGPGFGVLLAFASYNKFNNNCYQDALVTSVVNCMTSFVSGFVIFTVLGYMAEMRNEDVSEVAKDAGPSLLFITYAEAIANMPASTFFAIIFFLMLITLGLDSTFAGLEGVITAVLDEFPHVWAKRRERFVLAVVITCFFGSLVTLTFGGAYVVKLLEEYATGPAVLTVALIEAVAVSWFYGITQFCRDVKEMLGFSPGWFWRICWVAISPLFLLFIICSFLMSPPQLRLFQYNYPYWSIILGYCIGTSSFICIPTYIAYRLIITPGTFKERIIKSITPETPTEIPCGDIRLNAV
PROTOCOL_SUMMARY: Binding assay SERT (h), [3H]imipramine, CHO cells
TEST_CONTEXT: read-out: SERT [%]
REPORTED_PROPERTY: inhibition at 1 µM (%)

COMPOUND	ASSAYED_TARGET	VALUE
O=S(=O)(NCCCCN1CCN(c2cccc3c2OCCO3)CC1)c1ccc(-c2ccccc2)cc1 [Compound 396]	serotonine transporter (SERT) receptor (Homo sapiens, UniProt P31645)	16
O=S(=O)(NCCN1CC=C(c2c[nH]c3ccc(F)cc23)CC1)c1cccc(F)c1 [Compound 439]	serotonine transporter (SERT) receptor (Homo sapiens, UniProt P31645)	93
Cc1[nH]c2ccc(Cl)cc2c1C1=CCN(CCCCNS(=O)(=O)c2cccc(Cl)c2)CC1 [Compound 137]	serotonine transporter (SERT) receptor (Homo sapiens, UniProt P31645)	38
O=S(=O)(NCCCN1CCC(c2noc3cc(F)ccc23)CC1)c1ccc2c(c1)OCO2 [Compound 354]	serotonine transporter (SERT) receptor (Homo sapiens, UniProt P31645)	6

###

ASSAYED_TARGET: muscarinic M3 receptor (Homo sapiens, UniProt P20309)
Construct: expressed in transfected cells; host or cells: CHO cells
Sequence (P20309 whole entry): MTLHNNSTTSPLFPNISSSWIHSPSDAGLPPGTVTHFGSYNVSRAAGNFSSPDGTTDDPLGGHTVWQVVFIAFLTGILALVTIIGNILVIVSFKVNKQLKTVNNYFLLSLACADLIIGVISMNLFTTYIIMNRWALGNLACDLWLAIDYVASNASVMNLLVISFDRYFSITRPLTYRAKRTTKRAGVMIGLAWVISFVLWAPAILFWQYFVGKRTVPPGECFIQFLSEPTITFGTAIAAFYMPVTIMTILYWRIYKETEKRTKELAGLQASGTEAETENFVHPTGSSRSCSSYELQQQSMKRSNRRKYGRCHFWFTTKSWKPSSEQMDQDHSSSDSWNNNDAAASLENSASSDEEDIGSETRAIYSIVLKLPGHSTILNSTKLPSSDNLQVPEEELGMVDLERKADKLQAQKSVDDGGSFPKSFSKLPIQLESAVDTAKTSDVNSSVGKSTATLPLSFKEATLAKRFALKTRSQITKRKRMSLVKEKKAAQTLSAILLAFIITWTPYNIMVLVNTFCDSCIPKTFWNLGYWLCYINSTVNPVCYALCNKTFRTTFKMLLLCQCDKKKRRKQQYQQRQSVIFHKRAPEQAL
PROTOCOL_SUMMARY: Binding assay M3 (h), [3H]4-DAMP, CHO cells
TEST_CONTEXT: read-out: M3 [%]
Assign YES whenever inhibition at 1 µM does not fall below 10%; assign NO whenever it does.

MOL	ANSWER_LABEL
O=S(=O)(NCCCCN1CCC(c2noc3cc(F)ccc23)CC1)c1ccc2cc(Cl)ccc2c1	YES
O=S(=O)(NCCCCN1CCC(c2noc3cc(F)ccc23)CC1)c1cc2ccc(Cl)cc2s1	YES
Cc1cccc(S(=O)(=O)NCCCN2CCN(c3nsc4ccccc34)CC2)c1	YES
O=S(=O)(NCCCN1CCN(c2nsc3ccccc23)CC1)c1cccc(Cl)c1	YES
Cc1cccc(S(=O)(=O)NCCCN2CCC(c3noc4cc(F)ccc34)CC2)c1	YES
O=S(=O)(NCCCCN1CCC(c2noc3cc(F)ccc23)CC1)c1cccc2ccccc12	NO
O=S(=O)(NCCCCN1CCC(c2noc3cc(F)ccc23)CC1)c1cc2ccccc2s1	YES
O=S(=O)(NCCCN1CCN(c2nsc3ccccc23)CC1)c1cccc(C(F)(F)F)c1	YES
O=S(=O)(NCCN1CCN(c2nsc3ccccc23)CC1)c1cccc2ccccc12	NO
O=S(=O)(NCCCN1CCC(c2noc3cc(F)ccc23)CC1)c1ccc2ccccc2c1	NO
Cc1[nH]c2ccc(Cl)cc2c1C1=CCN(CCCCNS(=O)(=O)c2ccc(Cl)cc2)CC1	YES
O=S(=O)(NCCCCN1CCC(c2noc3cc(F)ccc23)CC1)c1ccc2c(c1)OCO2	YES
O=c1[nH]c2ccc(S(=O)(=O)NCCCCN3CCN(c4nsc5ccccc45)CC3)cc2o1	NO
O=S(=O)(NCCCCN1CCC(c2noc3cc(F)ccc23)CC1)c1ccc2ccccc2c1	NO
O=S(=O)(NCCCN1CCN(c2nsc3ccccc23)CC1)c1ccc(Cl)c(Cl)c1	NO
CC(C)(C)c1ccc(S(=O)(=O)NCCCN2CCN(c3nsc4ccccc34)CC2)cc1	YES
COc1cccc(S(=O)(=O)NCCCCN2CCC(c3noc4cc(F)ccc34)CC2)c1	YES
O=S(=O)(NCCCN1CCC(c2noc3cc(F)ccc23)CC1)c1ccc2cn[nH]c2c1	YES
O=S(=O)(NCCCN1CCN(c2nsc3ccccc23)CC1)c1ccc2cn[nH]c2c1	YES
O=S(=O)(NCCCN1CCN(c2nsc3ccccc23)CC1)c1ccc(F)c(Cl)c1	NO
O=S(=O)(NCCCCN1CCN(c2noc3ccccc23)CC1)c1cccc2ccccc12	NO
O=S(=O)(NCCCN1CCC(c2noc3cc(F)ccc23)CC1)c1cnc2ccccn12	NO
Cc1cccc(S(=O)(=O)NCCN2CCC(c3noc4cc(F)ccc34)CC2)c1	NO
O=S(=O)(NCCCN1CCN(c2nsc3ccccc23)CC1)c1ccc2c(c1)OCO2	YES
O=S(=O)(NCCCN1CCN(c2nsc3ccccc23)CC1)c1ccc(-c2ccccc2)cc1	YES
O=S(=O)(NCCCCN1CCN(c2nsc3ccccc23)CC1)c1cccc(O)c1	YES
N#Cc1cccc(S(=O)(=O)NCCCN2CCC(c3noc4cc(F)ccc34)CC2)c1	NO
O=S(=O)(NCCCCN1CCC(c2noc3cc(F)ccc23)CC1)c1cccs1	YES
O=S(=O)(NCCCCN1CCN(c2nsc3ccccc23)CC1)c1csc2ccccc12	YES
O=S(=O)(NCCCN1CCC(c2noc3cc(F)ccc23)CC1)c1cc2ccc(Cl)cc2s1	YES
O=S(=O)(NCCCCN1CCN(c2cccc3[nH]ccc23)CC1)c1cc2ccccc2s1	NO
O=c1[nH]c2cccc(N3CCN(CCCNS(=O)(=O)c4ccc(Cl)cc4)CC3)c2[nH]1	NO

###

Below: a set of entries, each annotated with reported α1 [%].
System: adrenergic α1 receptor
PROTOCOL_SUMMARY: Binding assay α1 (non-selective), [3H]prazosin, rat cerebral cortex
TEST_CONTEXT: percent inhibition of control specific binding; compounds tested at 1×10^−6 M
REPORTED_PROPERTY: α1 [%] (%)

COMPOUND	UOM	VALUE
O=S(=O)(NCCCCN1CCN(c2nsc3ccccc23)CC1)c1ccc2ccccc2c1 [Compound 2]	%	97
Cc1[nH]c2ccc(Cl)cc2c1C1=CCN(CCCNS(=O)(=O)c2ccc(Cl)cc2)CC1 [Compound 444]	%	26
O=S(=O)(NCCCCN1CCN(c2cccc3c2OCCO3)CC1)c1ccc2ccccc2c1 [Compound 386]	%	96
O=c1[nH]c2cccc(N3CCN(CCCNS(=O)(=O)c4cccc(Cl)c4)CC3)c2[nH]1 [Compound 174]	%	86
N#Cc1ccc(S(=O)(=O)NCCCN2CCC(c3noc4cc(F)ccc34)CC2)cc1 [Compound 337]	%	93
Cc1cccc(S(=O)(=O)NCCCCN2CCN(c3noc4ccccc34)CC2)c1 [Compound 15]	%	102
O=C1COc2c(cccc2N2CCN(CCCCNS(=O)(=O)c3cccc(C(F)(F)F)c3)CC2)N1 [Compound 430]	%	46
O=c1[nH]c2cccc(N3CCN(CCCNS(=O)(=O)c4cccc(F)c4)CC3)c2[nH]1 [Compound 176]	%	77

###

# maps each entry to its activation at 1 µM
ASSAYED_TARGET: serotoninergic 5-HT2A receptor (Homo sapiens, UniProt P28223)
Sequence (P28223 whole entry): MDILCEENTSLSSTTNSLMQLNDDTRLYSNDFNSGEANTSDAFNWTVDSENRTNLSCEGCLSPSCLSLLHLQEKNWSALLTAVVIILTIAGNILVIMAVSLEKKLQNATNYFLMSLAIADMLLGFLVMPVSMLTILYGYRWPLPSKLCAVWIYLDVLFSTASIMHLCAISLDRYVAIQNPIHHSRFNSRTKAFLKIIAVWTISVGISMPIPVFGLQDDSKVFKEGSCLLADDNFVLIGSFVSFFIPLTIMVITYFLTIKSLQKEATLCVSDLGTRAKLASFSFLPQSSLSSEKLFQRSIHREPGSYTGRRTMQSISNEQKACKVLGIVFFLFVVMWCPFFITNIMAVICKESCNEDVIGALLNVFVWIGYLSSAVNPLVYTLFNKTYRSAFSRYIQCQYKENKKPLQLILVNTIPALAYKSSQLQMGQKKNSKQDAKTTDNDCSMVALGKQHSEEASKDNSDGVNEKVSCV
PROTOCOL_SUMMARY: Cellular functional assay, serotoninergic 5-HT2A receptor (agonism/antagonism)
Type: cell-based
TEST_CONTEXT: read-out: 5-HT2A -ag [%]
REPORTED_PROPERTY: activation at 1 µM

MOL	VALUE
O=S(=O)(NCCCN1CCC(c2noc3cc(F)ccc23)CC1)c1ccc2cn[nH]c2c1	-1%
O=S(=O)(NCCCCN1CCN(c2cccc3[nH]ccc23)CC1)c1cc2ccc(Cl)cc2s1	-1%
O=S(=O)(NCCCCN1CCC(c2noc3cc(F)ccc23)CC1)c1ccc2cc(Cl)ccc2c1	-3%
O=S(=O)(NCCCCN1CCN(c2nsc3ccccc23)CC1)c1cc2ccccc2s1	-2%
Cc1c(S(=O)(=O)NCCCN2CCC(c3noc4cc(F)ccc34)CC2)sc2ccc(F)cc12	-2%
O=S(=O)(NCCCCN1CCC(c2noc3cc(F)ccc23)CC1)c1cc2ccc(Cl)cc2s1	-2%
Cc1c(S(=O)(=O)NCCCCN2CCN(c3noc4ccccc34)CC2)sc2ccc(F)cc12	-1%
O=S(=O)(NCCCCN1CCC(c2noc3cc(F)ccc23)CC1)c1cc2ccccc2s1	-2%
O=S(=O)(NCCCCN1CCN(c2noc3ccccc23)CC1)c1c[nH]c2ncccc12	-2%
O=S(=O)(NCCCCN1CCN(c2noc3ccccc23)CC1)c1ccc(-c2ccccc2)cc1	0%

###

ASSAYED_TARGET: UniProt:P28223
PROTOCOL_SUMMARY: Binding assay 5-HT2A (h), [3H]ketanserin, HEK-293 cells
Parameters: expressed in transfected cells; host or cells: HEK-293 cells
TEST_CONTEXT: read-out: 5-HT2A
Description: The specific ligand binding to the receptors is defined as the difference between the total binding and the nonspecific binding determined in the presence of an excess of so unlabelled ligand. The specific Ligand binding to the receptor is defined as the difference between total and non-specific binding determined in the presence of an excess of unlabelled ligand. The compounds were tested at a concentration of 1×10^−6 M, and scintillation counting was the method of detection of ligand binding.

MOL	ASSAYED_TARGET	inhibition at 1 µM [%]
O=S(=O)(NCCCCN1CCN(c2nsc3ccccc23)CC1)c1cccc2ccccc12	UniProt:P28223	99
O=S(=O)(NCCCCN1CCN(c2noc3ccccc23)CC1)c1ccc(F)c(Cl)c1	UniProt:P28223	87
O=C1COc2c(cccc2N2CCN(CCCCNS(=O)(=O)c3cccc(C(F)(F)F)c3)CC2)N1	UniProt:P28223	87
Cc1cccc(S(=O)(=O)NCCCCN2CCC(c3noc4cc(F)ccc34)CC2)c1	UniProt:P28223	100
Cc1c(S(=O)(=O)NCCCCN2CCN(c3nsc4ccccc34)CC2)sc2ccc(F)cc12	UniProt:P28223	101
